MEASURED_ON: KEAP1 C151 (Homo sapiens)
Construct: treating 500 μg of cell lysate generated from MDA-MB-468 breast cancer cells with DMSO or compound; endogenous in cells
Sequence (Q14145 whole entry): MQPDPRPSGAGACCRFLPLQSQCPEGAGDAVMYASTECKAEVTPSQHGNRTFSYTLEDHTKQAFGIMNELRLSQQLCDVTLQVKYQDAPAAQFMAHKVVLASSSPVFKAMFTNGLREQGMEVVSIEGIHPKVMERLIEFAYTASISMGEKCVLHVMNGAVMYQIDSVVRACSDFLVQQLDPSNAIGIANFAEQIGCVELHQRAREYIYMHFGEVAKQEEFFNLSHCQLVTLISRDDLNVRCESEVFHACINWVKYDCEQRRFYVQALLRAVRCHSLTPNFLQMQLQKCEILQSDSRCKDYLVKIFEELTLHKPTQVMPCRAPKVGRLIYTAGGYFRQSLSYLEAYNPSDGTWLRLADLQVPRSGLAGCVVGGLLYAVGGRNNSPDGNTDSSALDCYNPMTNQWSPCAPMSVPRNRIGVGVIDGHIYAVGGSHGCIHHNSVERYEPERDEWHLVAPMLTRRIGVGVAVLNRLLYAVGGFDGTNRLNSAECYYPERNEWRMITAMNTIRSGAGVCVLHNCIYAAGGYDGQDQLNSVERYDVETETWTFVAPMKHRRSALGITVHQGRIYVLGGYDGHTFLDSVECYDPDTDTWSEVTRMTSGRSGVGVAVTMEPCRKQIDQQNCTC
PROTOCOL_SUMMARY: Nrf2 TMT measurement: in vitro TE50 for KEAP1 C151 (IA-DTB competition, targeted TMT mass spectrometry) in MDA-MB-468 cell lysate
TEST_SETTINGS: in vitro target engagement of KEAP1 C151, targeted TMT, read-out: KEAP1_C151 TE50
Item-by-item account of pIC50
When answering, recall that pIC50 equals minus log10 of the concentration in mol/L, and write that number alone.

**Query** // pIC50 lookup, key: C=CC(=O)N1[C@H](c2cc(Cl)nc(-c3ccc(F)c(C(N)=O)c3)c2)COC[C@H]1C(F)F (single isomer, unassigned)
**Result** 8.14

**Query** Same for C=CC(=O)N1CCOCC1c1cc(Cl)nc(-c2ccc(F)c(C(N)=O)c2)c1 (single isomer, unassigned)
**Result** 7.62

**Query** Same for C=CC(=O)N1CCOCC1c1cc(Cl)cc(-c2cnccn2)c1 (single isomer, unassigned)
**Result** 7.31

**Query** Same for C=CC(=O)N1CC2(CCCC2)OCC1(C)c1cc(Cl)cc(-c2ccnc(N)n2)c1 (single isomer, unassigned)
**Result** 6.21

**Query** Same for C=CC(=O)N1CC(C)(C)OC[C@H]1c1cc(Cl)cc(-c2ccnc(C(N)=O)c2)c1 (single isomer, unassigned)
**Result** 7.14

New cases:
**Query** // pIC50 lookup, key: C=CC(=O)N1CCOC[C@H]1c1cc(Cl)cc(-n2cc(N)cn2)c1 (single isomer, unassigned)
**Result** 7.07

**Query** Same for C=CC(=O)N1CCOCC1c1cc(Cl)cc(-c2cnc3cccnc3c2)c1 (single isomer, unassigned)
**Result** 7.66

Reference source for all entries: patent US20260207621A1
